measurement-target: Porcine dipeptidyl peptidase IV (Sus scrofa)
Sequence (P22411 whole entry): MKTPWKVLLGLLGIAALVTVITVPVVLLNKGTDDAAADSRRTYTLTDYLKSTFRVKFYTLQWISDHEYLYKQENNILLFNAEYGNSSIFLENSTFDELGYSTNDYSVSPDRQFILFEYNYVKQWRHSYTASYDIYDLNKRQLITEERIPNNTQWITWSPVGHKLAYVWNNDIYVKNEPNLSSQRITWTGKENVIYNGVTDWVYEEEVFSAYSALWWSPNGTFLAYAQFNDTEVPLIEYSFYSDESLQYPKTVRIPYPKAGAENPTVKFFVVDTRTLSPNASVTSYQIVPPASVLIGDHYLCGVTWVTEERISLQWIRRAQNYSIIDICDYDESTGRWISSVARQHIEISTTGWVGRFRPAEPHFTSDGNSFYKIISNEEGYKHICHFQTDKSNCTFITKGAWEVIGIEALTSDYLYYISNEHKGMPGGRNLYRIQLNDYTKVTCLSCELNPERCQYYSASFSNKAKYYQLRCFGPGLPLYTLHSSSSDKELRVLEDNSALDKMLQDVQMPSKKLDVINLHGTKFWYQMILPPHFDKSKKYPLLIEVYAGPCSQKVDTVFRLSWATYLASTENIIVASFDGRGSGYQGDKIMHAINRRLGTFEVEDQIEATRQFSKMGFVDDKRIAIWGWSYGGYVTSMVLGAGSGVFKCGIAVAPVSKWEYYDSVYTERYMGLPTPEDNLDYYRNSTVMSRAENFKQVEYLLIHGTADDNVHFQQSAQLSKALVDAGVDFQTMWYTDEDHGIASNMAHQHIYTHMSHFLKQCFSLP
pIC50: −log10 of the molar value.

{"columns": ["smiles-input", "pIC50"],
 "data": [
  ["N#C[C@@H]1CCCN1C(=O)CNC12CC3CC(C1)CC(NS(=O)(=O)c1ccc(F)cc1)(C3)C2", 7.34],
  ["CS(=O)(=O)NC12CC3CC(CC(NCC(=O)N4CCC[C@H]4C#N)(C3)C1)C2", 7.23],
  ["N#C[C@@H]1CCCN1C(=O)CNC12CC3CC(C1)CC(NC(=O)NS(=O)(=O)c1ccc(F)cc1)(C3)C2", 7.15]
]}
